Cited source for all entries: patent US20240425478A1

target: Cyclin Dependent Kinase 2/Cyclin E1 (CDK2-cycE1) (Homo sapiens, UniProt P24941); construct: purchased ProQinase 0050-0055-1; experiment: CDK2-cycE1 TR-FRET (LANCE) enzyme assay; type: biochemical;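 as to improvement in potency against CDK2 (Ki) over Comparator C: fold lower CDK2 Ki than comparator c (Ki 0.032 µM)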
Would you mind telling me the reported improvement in potency against CDK2 (Ki) over Comparator C of each entry?
Give bare numbers, in fold.

Here is how some compounds turned out for improvement in potency against CDK2 (Ki) over Comparator C.
> print(dat)
                                    compound                            assayed.system  reported
 1  Cc1nccc(Nc2cc([C@H]3CC[C@@H](OC(=O)NC(C)C)C3)[nH]n2)n1 [Example 2O]  Cyclin Dependent Kinase 2/Cyclin E1 (CDK2-cycE1) (Homo sapiens, UniProt P24941)        37
 2  CC(C)NC(=O)O[C@@H]1CC[C@H](c2cc(Nc3cc(=O)[nH]cn3)n[nH]2)C1 [Example 2CC]  Cyclin Dependent Kinase 2/Cyclin E1 (CDK2-cycE1) (Homo sapiens, UniProt P24941)        97
 3  COc1cncc(Nc2cc([C@H]3CC[C@@H](OC(=O)NC(C)C)C3)[nH]n2)n1 [Example 2N]  Cyclin Dependent Kinase 2/Cyclin E1 (CDK2-cycE1) (Homo sapiens, UniProt P24941)        65
 4  COc1ncc(Nc2cc([C@H]3CC[C@@H](OC(=O)NC(C)C)C3)[nH]n2)c(C)n1 [Example 2X]  Cyclin Dependent Kinase 2/Cyclin E1 (CDK2-cycE1) (Homo sapiens, UniProt P24941)       0.5
 5  CNc1nccc(Nc2cc([C@H]3CC[C@@H](OC(=O)NC(C)C)C3)[nH]n2)n1 [Example 2H]  Cyclin Dependent Kinase 2/Cyclin E1 (CDK2-cycE1) (Homo sapiens, UniProt P24941)       114
 6  Cc1cncc(Nc2cc([C@H]3CC[C@@H](OC(=O)NC(C)C)C3)[nH]n2)c1 [Example 2K]  Cyclin Dependent Kinase 2/Cyclin E1 (CDK2-cycE1) (Homo sapiens, UniProt P24941)        10
 7  Cc1cnc(Nc2cc([C@H]3CC[C@@H](OC(=O)NC(C)C)C3)[nH]n2)c(C)n1 [Example 2V]  Cyclin Dependent Kinase 2/Cyclin E1 (CDK2-cycE1) (Homo sapiens, UniProt P24941)        35
 8  CC(C)NC(=O)O[C@@H]1CC[C@H](c2cc(Nc3ccnc(N)n3)n[nH]2)C1 [Example 2G]  Cyclin Dependent Kinase 2/Cyclin E1 (CDK2-cycE1) (Homo sapiens, UniProt P24941)        21
 9  Cc1nccnc1Nc1cc([C@H]2CC[C@@H](OC(=O)NC(C)C)C2)[nH]n1 [Example 2T]  Cyclin Dependent Kinase 2/Cyclin E1 (CDK2-cycE1) (Homo sapiens, UniProt P24941)        37
10  CC(C)NC(=O)O[C@@H]1CC[C@H](c2cc(Nc3ccnc(N(C)C)n3)n[nH]2)C1 [Example 2I]  Cyclin Dependent Kinase 2/Cyclin E1 (CDK2-cycE1) (Homo sapiens, UniProt P24941)       103

Give measured improvement in potency against CDK2 (Ki) over Comparator C for every item shown.
1. Cc1ncncc1Nc1cc([C@H]2CC[C@@H](OC(=O)NC(C)C)C2)[nH]n1 [Example 2U]
2. CC(C)NC(=O)O[C@@H]1CC[C@H](c2cc(Nc3cccnc3)n[nH]2)C1 [Example 2A]
3. Cc1cncc(Nc2cc([C@H]3CC[C@@H](OC(=O)NC(C)C)C3)[nH]n2)n1 [Example 2M]
4. Cc1ncc(Nc2cc([C@H]3CC[C@@H](OC(=O)NC(C)C)C3)[nH]n2)c(C)n1 [Example 2W]
5. CC(C)NC(=O)O[C@@H]1CC[C@H](c2cc(Nc3ccncn3)n[nH]2)C1 [Example 2C]
6. CC(C)NC(=O)O[C@@H]1CC[C@H](c2cc(Nc3ccnc(C(F)(F)F)n3)n[nH]2)C1 [Example 2L]
7. CC(C)NC(=O)O[C@@H]1CC[C@H](c2cc(Nc3ccc(-n4cccn4)cn3)n[nH]2)C1 [Example 2DD]

Solution:
1: 2; 2: 19; 3: 123; 4: 0.8; 5: 32; 6: 188; 7: 2.5

====

Would you mind telling me the reported FS CDK4/CDK2 of each entry?
target: Cyclin Dependent Kinase 2/Cyclin E1 (CDK2-cycE1) (Homo sapiens, UniProt P24941); construct: purchased ProQinase 0050-0055-1; assay: CDK2-cycE1 TR-FRET (LANCE) enzyme assay; assay type: biochemical; details: Table O, fold selectivity, enzymatic CDK4 Ki over CDK2 Ki
Numbers only.

Here is how some compounds turned out for FS CDK4/CDK2.
> print(dat)
                            chemical.string  reported
1  Cc1nc(C#N)ccc1Nc1cc([C@H]2CC[C@@H](OC(=O)NC(C)C)C2)[nH]n1       260
2  COc1cncc(Nc2cc([C@H]3CC[C@@H](OC(=O)NC(C)C)C3)[nH]n2)n1        53

Give measured FS CDK4/CDK2 for every item shown.
1. COc1ncc(Nc2cc([C@H]3CC[C@@H](OC(=O)NC(C)C)C3)[nH]n2)c(C)n1
2. Cc1cnc(Nc2cc([C@H]3CC[C@@H](OC(=O)NC(C)C)C3)[nH]n2)c(C)n1

Solution:
1. 64
2. 280

====

target: Cyclin Dependent Kinase 2/Cyclin E1 (CDK2-cycE1) (Homo sapiens, UniProt P24941); construct: purchased ProQinase 0050-0055-1; assay: CDK2-cycE1 TR-FRET (LANCE) enzyme assay; type: biochemical; conditions: Table Q, fold selectivity, enzymatic
Would you mind telling me the reported FS CDK4/CDK2 of each entry?

Here is how some compounds turned out for FS CDK4/CDK2.
> print(dat)
                                   compound                            assayed.system  reported
1  Cc1nccc(Nc2cc([C@H]3CC[C@@H](OC(=O)NC(C)C)C3)[nH]n2)n1 [Example 2O]  Cyclin Dependent Kinase 2/Cyclin E1 (CDK2-cycE1) (Homo sapiens, UniProt P24941)       290
2  CC(C)NC(=O)O[C@@H]1CC[C@H](c2cc(Nc3cccnc3)n[nH]2)C1 [Example 2A]  Cyclin Dependent Kinase 2/Cyclin E1 (CDK2-cycE1) (Homo sapiens, UniProt P24941)        44
3  CC(C)NC(=O)O[C@@H]1CC[C@H](c2cc(Nc3ccnc(N(C)C)n3)n[nH]2)C1 [Example 2I]  Cyclin Dependent Kinase 2/Cyclin E1 (CDK2-cycE1) (Homo sapiens, UniProt P24941)        87
4  CC(C)NC(=O)O[C@@H]1CC[C@H](c2cc(Nc3ccc(-n4cccn4)cn3)n[nH]2)C1 [Example 2DD]  Cyclin Dependent Kinase 2/Cyclin E1 (CDK2-cycE1) (Homo sapiens, UniProt P24941)        27
5  CC(C)NC(=O)O[C@@H]1CC[C@H](c2cc(Nc3ncnc(N(C)C)n3)n[nH]2)C1 [Example 2Q]  Cyclin Dependent Kinase 2/Cyclin E1 (CDK2-cycE1) (Homo sapiens, UniProt P24941)        37

Give measured FS CDK4/CDK2 for every item shown.
1. COc1ncc(Nc2cc([C@H]3CC[C@@H](OC(=O)NC(C)C)C3)[nH]n2)c(C)n1 [Example 2X]
2. CC(C)NC(=O)O[C@@H]1CC[C@H](c2cc(Nc3cncnc3)n[nH]2)C1 [Example 2B]
3. CNc1nccc(Nc2cc([C@H]3CC[C@@H](OC(=O)NC(C)C)C3)[nH]n2)n1 [Example 2H]
4. CC(C)NC(=O)O[C@@H]1CC[C@H](c2cc(Nc3cccn(C)c3=O)n[nH]2)C1 [Example 2BB]
5. Cc1cncc(Nc2cc([C@H]3CC[C@@H](OC(=O)NC(C)C)C3)[nH]n2)n1 [Example 2M]

Solution:
64
120
64
6.3
110

Give measured FS CDK4/CDK2 for every item shown.
1. CC(C)NC(=O)O[C@@H]1CC[C@H](c2cc(Nc3cncc(N(C)C)n3)n[nH]2)C1 [Example 2P]
2. CC(C)NC(=O)O[C@@H]1CC[C@H](c2cc(Nc3cncc(C(F)(F)F)n3)n[nH]2)C1 [Example 2R]

Solution:
43
140

Give measured FS CDK4/CDK2 for every item shown.
1. Cc1nccnc1Nc1cc([C@H]2CC[C@@H](OC(=O)NC(C)C)C2)[nH]n1 [Example 2T]
2. CC(C)NC(=O)O[C@@H]1CC[C@H](c2cc(Nc3ccc(-n4cccn4)nc3)n[nH]2)C1 [Example 2D]
3. COc1cncc(Nc2cc([C@H]3CC[C@@H](OC(=O)NC(C)C)C3)[nH]n2)n1 [Example 2N]

Solution:
170
34
53

Problem: Which FS CDK4/CDK2 is reported for this compound? COc1nccc(Nc2cc([C@H]3CC[C@@H](OC(=O)NC(C)C)C3)[nH]n2)n1 [Example 2F]
Solution: 270
